test: Cmax in mouse plasma at 0.625 mg/kg, ip measured up to 480 mins by LC/ESI-MS/MS analysis; format: ADME, organism-based; set-up: time < 480 min, dose 0.625 mg/kg, route ip
PROPERTY: Cmax
Number plus unit, in that order.

Using known records, supply Cmax for COc1cc2ncnc(N3CCC(CN4CCN(c5ccc(Cl)cc5)CC4)C3)c2cc1OC (stereo unspecified) 4.1 ng/mL

* * *

# collection of pKi values tested on 5-hydroxytryptamine receptor 7 (Homo sapiens, UniProt P34969)
# Sequence (P34969 whole entry): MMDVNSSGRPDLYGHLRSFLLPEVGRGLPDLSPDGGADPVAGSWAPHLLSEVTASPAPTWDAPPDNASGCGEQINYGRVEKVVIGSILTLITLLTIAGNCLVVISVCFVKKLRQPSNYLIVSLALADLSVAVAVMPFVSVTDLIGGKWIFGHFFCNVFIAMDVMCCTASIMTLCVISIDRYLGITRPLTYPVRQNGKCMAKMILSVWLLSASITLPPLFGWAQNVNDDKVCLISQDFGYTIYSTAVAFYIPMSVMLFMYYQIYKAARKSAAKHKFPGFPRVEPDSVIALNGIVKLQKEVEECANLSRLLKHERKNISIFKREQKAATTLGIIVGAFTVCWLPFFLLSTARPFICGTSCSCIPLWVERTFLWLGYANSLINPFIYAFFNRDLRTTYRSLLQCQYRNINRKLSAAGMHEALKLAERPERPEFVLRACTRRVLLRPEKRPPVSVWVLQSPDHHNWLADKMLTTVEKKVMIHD
Entry type: numeric. Quantity: pKi, the -log10 of concentration in molar units.

Worked cases, answers included:
In [3]: df
Out[3]:
                                   molecule  observed
0  COc1cc2ncnc(N3CCC(CN4CCc5ccccc5C4)C3)c2cc1OC (stereo not given)      6.22
1  O=c1[nH]c2cccc(N3CCN(Cc4ccc5ccccc5n4)CC3)c2[nH]1      6.38
2  COc1cc2ncnc(N3CCC(CN4CCN(c5ccc(Cl)c(Cl)c5)CC4)C3)c2cc1OC (stereo not given)      6.45

Using known records, supply pKi for COc1cc2ncnc(N3CCC(CN4CCN(c5ccccc5O)CC4)C3)c2cc1OC (stereo not given) 6.18

Using known records, supply pKi for COc1cc2ncnc(N3CCC(CN4CCN(c5ccccc5)CC4)C3)c2cc1OC (stereo not given) 6.60

Using known records, supply pKi for COc1cc2ncnc(N3CCC(CN4CCN(c5cccc(Cl)c5Cl)CC4)C3)c2cc1OC (stereo not given) 6.46

* * *

test: Tmax in mouse striatum at 1.25 mg/kg, ip by LC/ESI-MS/MS analysis; type: ADME, organism-based
PROPERTY: Tmax (min)
Unit min implied. Number only.

Using known records, supply Tmax for COc1cccc(N2CCN(CC3CCN(c4ncnc5cc(OC)c(OC)cc45)C3)CC2)c1 (stereo unspecified) 30

* * *

experiment: Tmax in mouse hippocampus at 0.625 mg/kg, ip by LC/ESI-MS/MS analysis; assay type: ADME, organism-based
PROPERTY: Tmax

Using known records, supply Tmax for COc1cc2ncnc(N3CCC(CN4CCN(c5ccc(Cl)cc5)CC4)C3)c2cc1OC (stereo unspecified) 30 min

* * *

assay: Ratio of drug concentration in frontal cortex to plasma in mouse at 0.625 mg/kg, ip by LC/ESI-MS/MS analysis; assay type: ADME, organism-based; details: frontal cortex and plasma
PROPERTY: Kp
// print number alone

Using known records, supply Kp for COc1cc2ncnc(N3CCC(CN4CCN(c5ccc(Cl)cc5)CC4)C3)c2cc1OC (stereo unspecified) 149

* * *

experiment: Cmax in mouse striatum at 0.625 mg/kg, ip by LC/ESI-MS/MS analysis; assay type: ADME, organism-based; design: dose 0.625 mg/kg, route ip
PROPERTY: Cmax (ng/mL)
Unit ng/mL implied. Number only.

Using known records, supply Cmax for COc1cc2ncnc(N3CCC(CN4CCN(c5ccc(Cl)cc5)CC4)C3)c2cc1OC (stereo unspecified) 317

* * *

assay: Tmax in mouse striatum at 0.625 mg/kg, ip by LC/ESI-MS/MS analysis; format: ADME, organism-based
PROPERTY: Tmax (min)
Unit min implied. Number only.

Using known records, supply Tmax for COc1cc2ncnc(N3CCC(CN4CCN(c5ccc(Cl)cc5)CC4)C3)c2cc1OC (stereo unspecified) 30

* * *

target: cAMP and cAMP-inhibited cGMP 3',5'-cyclic phosphodiesterase 10A (Homo sapiens, UniProt Q9Y233); experiment: Inhibition of PDE10A (unknown origin) at 10 uM preincubated for 20 mins followed by substrate addition and measured after 1 hr by PEDlight AMP detection reagent based luminescence assay relative to control; conditions: time 80.0 min
Sequence (Q9Y233 whole entry): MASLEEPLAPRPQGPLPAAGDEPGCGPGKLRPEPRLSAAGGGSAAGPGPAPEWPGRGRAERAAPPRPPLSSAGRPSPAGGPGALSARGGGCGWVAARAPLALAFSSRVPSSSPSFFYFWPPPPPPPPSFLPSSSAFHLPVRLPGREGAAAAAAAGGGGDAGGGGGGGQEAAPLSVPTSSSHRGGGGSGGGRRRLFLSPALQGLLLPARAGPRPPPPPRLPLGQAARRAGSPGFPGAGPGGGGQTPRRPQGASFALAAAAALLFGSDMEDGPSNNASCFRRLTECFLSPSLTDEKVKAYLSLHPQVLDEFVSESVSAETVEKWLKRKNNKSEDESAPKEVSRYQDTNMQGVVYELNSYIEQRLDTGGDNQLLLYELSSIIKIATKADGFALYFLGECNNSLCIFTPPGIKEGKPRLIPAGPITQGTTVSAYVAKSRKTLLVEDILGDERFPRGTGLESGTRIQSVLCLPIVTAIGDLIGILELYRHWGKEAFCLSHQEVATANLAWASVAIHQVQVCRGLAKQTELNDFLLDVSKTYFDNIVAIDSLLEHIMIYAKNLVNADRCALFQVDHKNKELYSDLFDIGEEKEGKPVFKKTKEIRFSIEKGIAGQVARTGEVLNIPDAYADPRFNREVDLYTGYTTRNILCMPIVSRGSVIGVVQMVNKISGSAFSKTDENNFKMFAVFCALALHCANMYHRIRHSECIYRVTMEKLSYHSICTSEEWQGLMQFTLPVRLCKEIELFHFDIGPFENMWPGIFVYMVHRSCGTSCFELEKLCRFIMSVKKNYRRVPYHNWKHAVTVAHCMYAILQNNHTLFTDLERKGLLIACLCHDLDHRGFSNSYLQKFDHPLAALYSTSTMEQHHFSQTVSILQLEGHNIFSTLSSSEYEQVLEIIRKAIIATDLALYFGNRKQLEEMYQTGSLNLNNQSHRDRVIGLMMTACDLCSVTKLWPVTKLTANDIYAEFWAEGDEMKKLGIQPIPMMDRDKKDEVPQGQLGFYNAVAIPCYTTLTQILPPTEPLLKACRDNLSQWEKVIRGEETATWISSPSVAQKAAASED
PROPERTY: inhibition

>>> print(df.to_string())
                                   compound  observed
0  COc1cc2ncnc(N3CCC(CN4CCN(c5ccc(Cl)c(Cl)c5)CC4)C3)c2cc1OC (stereo not drawn)        2%
1  COc1cc2ncnc(N3CCC(CN4CCN(c5ccccn5)CC4)C3)c2cc1OC (stereo not drawn)       11%
2  c1cc(N2CCN(c3cccc4cn[nH]c34)CC2)c2ncncc2c1        3%

Using known records, supply inhibition for COc1cc2ncnc(N3CCC(CN4CCN(c5ncccn5)CC4)C3)c2cc1OC (stereo not drawn) 11%

Using known records, supply inhibition for COc1cc2ncnc(N3CCC(CN4CCN(c5ccc(O)cc5)CC4)C3)c2cc1OC (stereo not drawn) 18%

Using known records, supply inhibition for `O=c1[nH]c2cccc(N3CCN(Cc4ccc5ccccc5n4)CC3)c2[nH]1` 17%

Using known records, supply inhibition for COc1cc2ncnc(N3CCC(CN4CCN(c5cccc(Cl)c5)CC4)C3)c2cc1OC (stereo not drawn) 4%

Using known records, supply inhibition for `COc1cc2ncnc(N3CCN(Cc4nc5ccccc5[nH]4)CC3)c2cc1OC` 3%

Using known records, supply inhibition for COc1cc2ncnc(N3CCC(CN4CCN(c5ccccc5OC)CC4)C3)c2cc1OC (stereo not drawn) 16%

Using known records, supply inhibition for COc1cc2ncnc(N3CCC(CN4CCc5ccccc5C4)C3)c2cc1OC (stereo not drawn) 40%

Using known records, supply inhibition for `COc1cc2ncnc(N3CCN(Cc4ccc5ccccc5n4)CC3)c2cc1OC` 8%

Using known records, supply inhibition for COc1cc2ncnc(N3CCC(CN4CCN(c5cccc(Cl)c5Cl)CC4)C3)c2cc1OC (stereo not drawn) 6%

Using known records, supply inhibition for COc1cc2ncnc(N3CCC(CN4CCN(c5cccc(C(F)(F)F)c5)CC4)C3)c2cc1OC (stereo not drawn) 3%

Using known records, supply inhibition for `O=c1[nH]c2cccc(N3CCN(Cc4cnc5ccccc5n4)CC3)c2[nH]1` 9%

Using known records, supply inhibition for `O=c1[nH]c2cccc(N3CCN(Cc4nc5ccccc5[nH]4)CC3)c2[nH]1` 23%

Using known records, supply inhibition for COc1cc2ncnc(N3CCC(CN4CCN(c5ccc(Cl)cc5)CC4)C3)c2cc1OC (stereo not drawn) 21%

Using known records, supply inhibition for `COc1cc2ncnc(N3CCN(Cc4cnc5ccccc5n4)CC3)c2cc1OC` 29%

Using known records, supply inhibition for COc1cc2ncnc(N3CCC(CN4CCN(c5ccccc5)CC4)C3)c2cc1OC (stereo not drawn) 3%

* * *

test: Aqueous solubility of compound in PBS buffer at pH 7.4 by UV absorbance based analysis; format: physicochemical
PROPERTY: solubility (µM)
Unit µM implied. Number only.

>>> df
                                   molecule  observed
0  COCCc1ccc(OCC(O)CNC(C)C)cc1 (configuration not stated)       200

Using known records, supply solubility for COc1cc2ncnc(N3CCC(CN4CCN(c5ccc(Cl)cc5)CC4)C3)c2cc1OC (configuration not stated) 187

* * *

target: UniProt:P28223
Sequence (P28223 whole entry): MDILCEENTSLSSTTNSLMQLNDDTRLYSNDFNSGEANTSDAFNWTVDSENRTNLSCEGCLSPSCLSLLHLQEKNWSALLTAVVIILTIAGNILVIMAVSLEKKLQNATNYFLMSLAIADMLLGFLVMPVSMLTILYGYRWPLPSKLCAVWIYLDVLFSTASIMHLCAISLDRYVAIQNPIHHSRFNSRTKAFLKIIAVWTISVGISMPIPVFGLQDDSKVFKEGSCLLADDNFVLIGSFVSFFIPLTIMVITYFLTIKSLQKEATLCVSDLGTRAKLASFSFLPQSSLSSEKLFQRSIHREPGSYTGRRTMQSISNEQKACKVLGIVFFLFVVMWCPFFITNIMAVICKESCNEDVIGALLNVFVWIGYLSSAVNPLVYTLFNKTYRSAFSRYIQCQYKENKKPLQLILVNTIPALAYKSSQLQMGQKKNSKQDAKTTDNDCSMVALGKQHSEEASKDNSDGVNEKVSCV
pKi: −log10 of the molar value.
PROPERTY: pKi

Specify the recorded pKi for COc1cccc(N2CCN(CC3CCN(c4ncnc5cc(OC)c(OC)cc45)C3)CC2)c1 (stereo unspecified) , system: UniProt:P28223. < 6.00
